Origin of measurements: paper PMC5540273

- Test system: LATS1
- Run conditions: concentration: 1 μM,replicates: in singlicate; n = 1;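 further: KINOMEscan kinase panel screen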
%Inh for assorted molecules
Output spec: scalar in %, unitless text.

Cc1nnc(-c2ccc3occ(-c4ccc(S(C)=O)cc4)c3n2)o1 (stereo not drawn) : 0
FC(F)(F)c1cc(Br)cc(Nc2nccc(-c3cnn4ncccc34)n2)c1 : 0
Cl.c1ccc(Oc2ccc(Nc3ccnc4cc(-c5ccc(CN6CCNCC6)o5)ccc34)cc2)nc1 : 0
Nc1nccc(-c2ccc3c(N)n[nH]c3c2)n1 : 0
Cc1cccc2c(-c3ccncc3)c(-c3ccc(F)cc3)nn12.Cl : 0

INPUT: Please look up its %Inh: CCn1c(-c2nonc2N)nc2cncc(Br)c21
OUTPUT: 0

INPUT: Please look up its %Inh: O=C(Nc1ccccc1)c1cccc(Oc2ccc3nccn3n2)c1
OUTPUT: 0

INPUT: Please look up its %Inh: C[C@@H]1CNc2c(sc3ccc4nc(-c5ccc(O)cc5)ccc4c23)C(=O)N1
OUTPUT: 17

INPUT: Please look up its %Inh: C[C@@H](Oc1cc(-n2cnc3ccc(-c4ccncc4)cc32)sc1C(N)=O)c1ccccc1Cl
OUTPUT: 3

----------
- Tested on: YSK4
- Construct: gene MAP3K19
- Run conditions: concentration: 1 μM,replicates: in singlicate; n = 1
Each entry belongs to exactly one class, chosen by where its %Inh falls: lower range (below 6%), middle range (6% to below 90%), upper range (90% or more)

Cc1ccc2c(-c3ccnc(Nc4ccc(C(F)(F)F)cc4)n3)cnn2n1 : middle range
Cl.Nc1n[nH]c2cc(-c3ccccn3)ccc12 : lower range
COc1ccc(Nc2nccc(N3CCC(NC(=O)c4cccc(C#N)c4)C3)n2)cc1 (centres unmarked) : lower range
O=C(NOCC1CC1)c1cc(Br)c(F)c(F)c1Nc1ccc(I)cc1Cl : lower range
CNC(=O)c1ccccc1Nc1nc(Nc2cccc(CS(C)(=O)=O)c2)ncc1C.O=CO : upper range

INPUT: Determine which band this molecule sits in: O=C(Nc1cccc(C(F)(F)F)c1)c1cccc(Oc2ccc3nccn3n2)c1
OUTPUT: middle range

INPUT: Determine which band this molecule sits in: Cc1cccc(-c2nc(Nc3ccncc3)c3sccc3n2)n1
OUTPUT: middle range

INPUT: Determine which band this molecule sits in: Cc1ccn2nc(-c3ccc(F)cc3)c(-c3ccncc3)c2c1.Cl
OUTPUT: lower range

INPUT: Determine which band this molecule sits in: Cn1ccc2ncnc(Oc3ccc(NC(=O)Nc4cnn(C(C)(C)C)c4)c(Cl)c3)c21
OUTPUT: middle range

INPUT: Determine which band this molecule sits in: CS(=O)(=O)Nc1ccc(-c2ccnc3[nH]ccc23)cc1
OUTPUT: upper range

----------
- Tested on: FAK
- Construct: gene PTK2
- Run conditions: concentration: 1 μM,replicates: in singlicate; n = 1
%Inh for assorted molecules
Output spec: scalar in %, unitless text.

Example cases with answers are listed next.
COC(=O)Nc1nc2cc(Oc3ccc(NC(=O)Nc4cc(C(F)(F)F)ccc4Cl)cc3)ccc2[nH]1.Cl : 0
Cl.c1ccc(Oc2ccc(Nc3ccnc4cc(-c5ccc(CN6CCNCC6)o5)ccc34)cc2)nc1 : 9
CS(=O)(=O)c1cccc(CNc2nc(Nc3ccc4c(c3)[C@@H]3C[C@@H]4CNC3=O)ncc2C(F)(F)F)c1 : 100
COc1cc2nccc(Nc3ccc(Oc4ccccc4)cc3)c2cc1OC.Cl : 0
CCN1CCN(CCCC(=O)Nc2n[nH]c3nc(-c4ccc(O)cc4)c(Br)cc23)CC1 : 0

INPUT: Please look up its %Inh: FC(F)(F)c1cc(Br)cc(Nc2nccc(-c3cnn4ncccc34)n2)c1
OUTPUT: 18

INPUT: Please look up its %Inh: CS(=O)(=O)Nc1ccc(-c2ccnc3[nH]ccc23)cc1
OUTPUT: 0

INPUT: Please look up its %Inh: Cc1ccc2c(-c3ccnc(Nc4ccc(C(F)(F)F)cc4)n3)cnn2n1
OUTPUT: 13
